# credit: ChEMBL document CHEMBL1139304

System: Trypanosoma cruzi
Experiment: Trypanocidal activity against Trypanosoma cruzi Y in Swiss albino mouse blood after 24 hrs
Assay type: functional, organism-based
Conditions: read-out: pIC50 (converted)
# IC50 per record follows
Answer shape: numeric part, then the unit.

CN(C)c1ccc(/C=N/NC(=O)/C(=C/c2cnn(-c3ccccc3)c2)c2ccc(C(F)(F)F)cc2)cc1    912 µM
O=C(N/N=C/c1ccc([N+](=O)[O-])cc1)/C(=C/c1cnn(-c2ccccc2)c1)c1ccccc1    28.2 µM
O=C(N/N=C/c1ccccc1)/C(=C/c1cnn(-c2ccccc2)c1)c1ccc(F)cc1    7760 µM

Now for a further compound.
Task: Provide only the value of recorded IC50 for "O=C(N/N=C/c1ccc([N+](=O)[O-])cc1)/C(=C/c1cnn(-c2ccccc2)c1)c1ccc(C(F)(F)F)cc1"
Result: 741 µM

* * *

Test system: Trypanosoma cruzi
Assay: Trypanocidal activity against Trypanosoma cruzi Y in Swiss albino mouse blood after 24 hrs
Type: functional, organism-based
Details: read-out: pIC50 (converted)
# note: boundary value 900 µM maps to false (0); IC50 below it maps to true (1)

Study these solved cases before continuing.
NNC(=O)/C(=C/c1cnn(-c2ccccc2)c1)c1ccccc1    false (0)
O=C(N/N=C/c1ccc(Br)cc1)/C(=C/c1cnn(-c2ccccc2)c1)c1ccc(C(F)(F)F)cc1    true (1)
O=C(N/N=C/c1ccc(F)cc1)/C(=C/c1cnn(-c2ccccc2)c1)c1ccccc1    false (0)

Task: Given "N#Cc1ccc(/C=N/NC(=O)/C(=C/c2cnn(-c3ccccc3)c2)c2ccc(F)cc2)cc1" , is recorded IC50 strictly lower than 900 µM?
Result: true (1)

Task: Does this molecule meet the criterion IC50 < 900 µM? "COc1ccc(/C=N/NC(=O)/C(=C/c2cnn(-c3ccccc3)c2)c2ccccc2)cc1"
Result: false (0)

* * *

Test system: Trypanosoma cruzi
Test: Trypanocidal activity against Trypanosoma cruzi Y in Swiss albino mouse blood after 24 hrs
Format: functional, organism-based
Conditions: read-out: pIC50 (converted)
Threshold-based label: IC50 under 900 µM gives y, IC50 not under 900 µM gives n.

Solved entries (count: 5):
O=C(N/N=C/c1ccccc1)/C(=C/c1cnn(-c2ccccc2)c1)c1ccccc1    y
CN(C)c1ccc(/C=N/NC(=O)/C(=C/c2cnn(-c3ccccc3)c2)c2ccccc2)cc1    y
COc1ccc(/C(=C\c2cnn(-c3ccccc3)c2)C(=O)N/N=C/c2ccc(Br)cc2)cc1    n
O=C(N/N=C/c1ccccc1)/C(=C/c1cnn(-c2ccccc2)c1)c1ccc(O)cc1    n
CN(C)c1ccc(/C=N/NC(=O)/C(=C/c2cnn(-c3ccccc3)c2)c2ccc(Br)cc2)cc1    y

Task: hey, is IC50 for "N#Cc1ccc(/C=N/NC(=O)/C(=C/c2cnn(-c3ccccc3)c2)c2ccc(C(F)(F)F)cc2)cc1" lower than 900 µM or not?
Result: y

Task: Please indicate whether the reported IC50 of "COc1ccc(/C(=C\c2cnn(-c3ccccc3)c2)C(=O)N/N=C/c2ccc(O)cc2)cc1" is strictly below 900 µM.
Result: n

Task: Strictly below 900 µM: is that where IC50 of "CCOc1ccc(/C=N/NC(=O)/C(=C/c2cnn(-c3ccccc3)c2)c2ccccc2)cc1" sits?
Result: y

* * *

List of IC50 values.
Test system: Trypanosoma cruzi
Experiment: Trypanocidal activity against Trypanosoma cruzi Y in Swiss albino mouse blood after 24 hrs
Type: functional, organism-based
Conditions: read-out: pIC50 (converted)
Write the answer as a number in µM, unit excluded.

Consider the worked cases shown below.
CN(C)c1ccc(/C=N/NC(=O)/C(=C/c2cnn(-c3ccccc3)c2)c2ccc(F)cc2)cc1    891
CSc1ccc(/C=N/NC(=O)/C(=C/c2cnn(-c3ccccc3)c2)c2ccccc2)cc1    437
COc1ccc(/C=N/NC(=O)/C(=C/c2cnn(-c3ccccc3)c2)c2ccc(F)cc2)cc1    339

Task: Identify measured IC50 associated with "O=C(N/N=C/c1ccc(Cl)cc1)/C(=C/c1cnn(-c2ccccc2)c1)c1ccccc1"
Result: 8510
